Provenance of the data: ChEMBL document CHEMBL1134856

# Species on record: Homo sapiens
# protocol_summary: Inhibition of LPS-stimulated TNF-alpha release from human whole blood
# Type: functional
experimental_endpoint: IC50 (nM)
Could you give me the number in nM? Just the number is fine.

IN: Would you mind telling me what IC50 value was observed for `Nc1nc(N)c(F)c(-c2nc(-c3ccc(F)cc3)c(-c3ccncc3)[nH]2)c1F` ?
OUT: 250

====

# system_under_test: Mitogen-activated protein kinase 14 (Mus musculus)
# Sequence (P47811 whole entry): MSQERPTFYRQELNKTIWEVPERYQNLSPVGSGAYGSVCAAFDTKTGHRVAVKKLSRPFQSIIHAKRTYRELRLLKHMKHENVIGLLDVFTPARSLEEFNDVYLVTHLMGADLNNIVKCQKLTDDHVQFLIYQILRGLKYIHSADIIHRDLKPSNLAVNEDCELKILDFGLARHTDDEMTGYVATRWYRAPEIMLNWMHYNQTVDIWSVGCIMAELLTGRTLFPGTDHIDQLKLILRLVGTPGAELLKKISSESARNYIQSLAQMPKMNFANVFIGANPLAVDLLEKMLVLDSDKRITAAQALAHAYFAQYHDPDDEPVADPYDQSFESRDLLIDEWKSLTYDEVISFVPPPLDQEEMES
# protocol_summary: […] inhibition of murine Mitogen-activated protein kinase p38 alpha activity, GST-ATF-2 as substrate in the presence of 120 uM ATP
As shown below, each of these compounds has a reported pIC50 value.
Entry type: numeric. Quantity: pIC50, the -log10 of concentration in molar units.

smiles_representation	reported_result
Fc1ccc(-c2[nH]c(-c3c(F)c(F)nc(F)c3F)nc2-c2ccncc2)cc1	7.05
Fc1ccc(-c2nc[nH]c2-c2ccncc2)cc1	6.00
Nc1nc(N)c(F)c(-c2nc(-c3ccc(F)cc3)c(-c3ccncc3)s2)c1F	6.85
Fc1ccc(-c2nc(-c3c(F)c(F)nc(F)c3F)oc2-c2ccncc2)cc1	4.00
Nc1nc(N)c(F)c(-c2nc(-c3ccncc3)c(-c3cc4ccccc4o3)[nH]2)c1F	8.30
Nc1nc(N)c(F)c(-c2cc(-c3ccncc3)c(-c3ccc(F)cc3)[nH]2)c1F	8.40

IN: Reported pIC50 for Mitogen-activated protein kinase 14 (Mus musculus), given `Nc1nc(N)c(F)c(-n2nc(-c3ccncc3)c(-c3ccc(F)cc3)n2)c1F` ?
OUT: 6.68

IN: # value lookup — system Mitogen-activated protein kinase 14 (Mus musculus), readout pIC50, item `Nc1nc(N)c(F)c(-c2nc(-c3ccc(F)cc3)c(-c3ccncc3)o2)c1F`
OUT: 6.40

IN: Return pIC50 measured with Mitogen-activated protein kinase 14 (Mus musculus) given this compound: `Nc1nc(F)c(F)c(-c2nc(-c3ccncc3)c(-c3ccc(F)cc3)[nH]2)c1F`
OUT: 8.40
